Tested on: Ba/F3-BCR-ABL1-WT cells
Test: Proliferation assay Ba/F3-BCR-ABL1-WT cells
Assay type: cell-based, murine
Settings: Mus musculus, 48 h, read-out: Ba/F3-BCR-ABL1-WT IC50 [μM]
Experimental Readout: IC50 (µM)
Entry rule: numbers only, all in µM.

IC50 recorded for this compound, C[C@@]1(O)CCN(c2ncc(C(=O)Nc3ccc(OC(F)(F)F)cc3)cc2-c2ccn[nH]2)C1 , is 0.0048

* * *

Target: ABL1 (64-515) (Homo sapiens (Human))
Assay: Caliper ABL1 (64-515) microfluidic mobility shift kinase assay
Conditions: read-out: Caliper ABL1 (64-515) IC50
Can you tell me IC50 for the items I'm about to list?
I only need the number, in nM, no unit after it.

For the compound N#Cc1ccc(-c2cc(C(=O)Nc3ccc(OC(F)(F)Cl)cc3)cnc2N2CC[C@@H](O)C2)[nH]1 [Example 45] , the measured IC50 on ABL1 (64-515) (Homo sapiens (Human)) was 0.7

Noted IC50 for CN(C)C(=O)c1ccc(-c2cc(C(=O)Nc3ccc(OC(F)(F)Cl)cc3)cnc2N2CC[C@@H](O)C2)[nH]1 [Example 73] , tested on ABL1 (64-515) (Homo sapiens (Human)): 1.1

Known value: ABL1 (64-515) (Homo sapiens (Human)) IC50 of the compound CN(C)C1CN(c2ncc(C(=O)Nc3ccc(OC(F)(F)Cl)cc3)cc2-c2ccn[nH]2)C1 [Example 65] equals 0.9

I looked up NCC1(O)CCN(c2ncc(C(=O)Nc3ccc(OC(F)(F)Cl)cc3)cc2-c2ccn[nH]2)C1 (stereo not shown) [Example 83] and its IC50 for ABL1 (64-515) (Homo sapiens (Human)) was 0.4

For NC12CC1CN(c1ncc(C(=O)Nc3ccc(OC(F)(F)F)cc3)cc1-c1ccn[nH]1)C2 (stereo not shown) [Example 33] on ABL1 (64-515) (Homo sapiens (Human)), measured IC50 was 5

Summary line: CO[C@H]1CN(c2ccc(C(=O)Nc3ccc(OC(F)(F)F)cc3)cc2-c2cncs2)C[C@@H]1O (relative stereo) [Example 4] , ABL1 (64-515) (Homo sapiens (Human)), reported IC50 = 4.2

IC50 for ABL1 (64-515) (Homo sapiens (Human)) with input O=C(Nc1ccc(OC(F)(F)F)cc1)c1cnc(N2CC[C@@H](O)C2)c(-c2ncc[nH]2)c1 [Example 70] equals 6.4

* * *

Target: ABL1 (64-515) (Homo sapiens (Human), UniProt P00519)
Sequence (P00519 64-515): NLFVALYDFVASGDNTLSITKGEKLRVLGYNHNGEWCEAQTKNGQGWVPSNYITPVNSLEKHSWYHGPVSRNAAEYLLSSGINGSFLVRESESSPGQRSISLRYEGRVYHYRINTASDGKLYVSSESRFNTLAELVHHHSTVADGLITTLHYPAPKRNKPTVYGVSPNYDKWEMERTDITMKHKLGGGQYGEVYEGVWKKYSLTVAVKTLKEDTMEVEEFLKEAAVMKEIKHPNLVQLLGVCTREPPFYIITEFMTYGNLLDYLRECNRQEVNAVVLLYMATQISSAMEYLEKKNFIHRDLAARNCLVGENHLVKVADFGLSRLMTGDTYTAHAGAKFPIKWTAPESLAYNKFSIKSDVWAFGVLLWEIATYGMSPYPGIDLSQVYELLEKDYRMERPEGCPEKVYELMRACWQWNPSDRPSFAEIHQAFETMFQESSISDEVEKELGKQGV
Assay: Caliper ABL1 (64-515) microfluidic mobility shift kinase assay
Settings: read-out: Caliper ABL1 (64-515) IC50
So I've got a bunch of compounds here, and I need their pIC50 values.
Please note pIC50 is a logarithmic value: minus log10 of concentration in mol/L. Answer with that number alone.

Measured pIC50 of O=C(Nc1ccc(OC(F)(F)Cl)cc1)c1cnc(N2CCN(C3CC3)CC2)c(-c2ccn[nH]2)c1 [Example 57] : 8.47

pIC50 for Cc1cnc(-c2cc(C(=O)Nc3ccc(OC(F)(F)F)cc3)cnc2N2CC[C@@H](O)C2)[nH]1 [Example 72] is 8.38

Measured pIC50 of O=C(Nc1ccc(OC(F)(F)F)cc1)c1cnc(N2C[C@H](CO)[C@@H](O)C2)c(-c2cncs2)c1 (relative stereo) [Example 17] : 8.85

pIC50 recorded for this compound, O=C(Nc1ccc(SC(F)(F)F)cc1)c1cnc(N2CC[C@@H](O)C2)c(-c2ccc[nH]2)c1 [Example 25] , is 8.59

// O=C(Nc1ccc(OC(F)(F)Cl)cc1)c1cnc(N2CCC[C@H](O)C2)c(-c2ccn[nH]2)c1 [Example 86] : pIC50 value = 8.82
